Recorded melting point, one value per entry.

// below: answered molecules
> print(dat)
                                smiles.code        readout            val
1  Cc1c(Cl)cc(C(C)(C)C)c(O)c1-c1nc2ccc(S(=O)(=O)C(F)(F)F)cc2c(=O)[nH]1  melting point  297 to 298 °C
2  Cc1c(Cl)cc(C(C)(C)C)c(O)c1-c1nc2ccc(F)cc2c(=O)[nH]1  melting point  224 to 225 °C
3  Cc1c(F)cc(C(C)(C)C)c(O)c1-c1nc2ccc(S(=O)(=O)C(F)(F)F)cc2c(=O)[nH]1  melting point  257 to 258 °C
4  CC(C)(C)c1cc2c(c(-c3nc4ccc(S(=O)(=O)C(F)(F)F)cc4c(=O)[nH]3)c1O)CCO2  melting point  235 to 237 °C
5  Cc1c(F)cc(C(C)(C)C)c(O)c1-c1nc2ccc(F)cc2c(=O)[nH]1  melting point  247 to 248 °C

Note: attention shifts to another entry.
Q: Give me measured melting point, please, for this molecule: CCc1c(Cl)cc(C(C)(C)C)c(O)c1-c1nc2ccc(S(=O)(=O)C(F)(F)F)cc2c(=O)[nH]1
Ans: 285 to 286 °C
